assay-notes: DOI inhibition study in rats, oral administration of test compound (oral availability)
Assay type: in vivo, rat
study-conditions: in vivo; rat; 50 mg/kg oral vs 10 mg/kg i.p., inferred from DOI test
measured-parameter: bioavailability

Cn1cc(Br)c(-c2cccc(NC(=O)Nc3ccc(Cl)cc3)c2)n1 [Compound 116081] = ≥ 20%

// switching to the query compound
Problem: GET /values?readout=bioavailability&item= Cn1cc(Br)c(-c2cccc(NC(=O)Nc3ccc(F)cc3)c2)n1 [Compound 116082]
Result: ≥ 20%

----------
Tested on: human mutated 5HT2A receptor, AP-3
assay-notes: Receptor-mediated inositol phosphate (IP3) accumulation, AP-3
Assay type: cell-based
study-conditions: 10 μM test compound, triplicate; control without test compound
y if IP3 % of Control is below 10%. n if not; exact matches included in n.

Cc1c(Cl)cc(NC(=O)Nc2cccc(-c3nn(C)cc3Br)c2)cc1Cl = n
Cn1cc(Br)c(-c2cccc(NC(=O)Nc3ccccc3C(N)=O)c2)n1 = n
CN(C)c1ccc(NC(=O)Nc2cccc(-c3nn(C)cc3Br)c2)cc1 = y

Problem: Below 10% on IP3 % of Control? Entry "Cn1cc(Br)c(-c2cccc(NC(=O)Nc3ccc(C(C)(C)C)cc3)c2)n1"
Result: n

Problem: In plain terms, does "Cn1cc(Br)c(-c2cccc(NC(=O)Nc3ccccc3F)c2)n1" come in under 10% for IP3 % of Control?
Result: n

Problem: Decide: IP3 % of Control of "COc1ccc(NC(=O)Nc2cccc(-c3nn(C)cc3Br)c2)cc1" strictly below 10%?
Result: n

----------
Test system: human mutated 5HT2A receptor, AP-3
assay-notes: Receptor-mediated inositol phosphate (IP3) accumulation, AP-3
Format: cell-based
study-conditions: 10 μM test compound, triplicate; control without test compound
Parameter IP3 % of Control: see the listing below.
Report the value in % with no unit label.

Below: 2 compounds and their reported IP3 % of Control.
CSc1ccc(NC(=O)Nc2cccc(-c3nn(C)cc3Br)c2)cc1 = 16
Cn1cc(Br)c(-c2cccc(NC(=O)Nc3ccc(Cl)cc3)c2)n1 = 10

Problem: Value wanted: IP3 % of Control (human mutated 5HT2A receptor, AP-3) of entry "Cn1cc(Br)c(-c2cccc(NC(=O)Nc3ccccc3C#N)c2)n1"
Result: 30

Problem: Item: "Cn1cc(Br)c(-c2cccc(NC(=O)Nc3ccccc3OC(F)(F)F)c2)n1" Test system: human mutated 5HT2A receptor, AP-3 Read-out: IP3 % of Control Value: ?
Result: 11

Problem: Item "Cn1cc(Br)c(-c2cccc(NC(=O)Nc3ccccc3[N+](=O)[O-])c2)n1" with human mutated 5HT2A receptor, AP-3 - IP3 % of Control?
Result: 27

----------
assay-notes: Bar catalepsy test in rats (extrapyramidal side effect analysis)
Assay type: in vivo, rat (male Sprague-Dawley)
study-conditions: rat, in vivo, ip; bar test versus DOI test, rats; read-out: dose without extra-pyramidal side effects relative to dose required to block 5HT2A receptors in vivo
measured-parameter: selectivity ratio
Write no unit; give the number alone.

Problem: Would you mind telling me what selectivity ratio value was observed for "Cn1cc(Br)c(-c2cccc(NC(=O)Nc3ccc(F)cc3)c2)n1" ?
Result: 8

----------
Some compounds, each annotated with its measured IP3 % of Control.
Tested on: human mutated 5HT2A receptor, AP-3
assay-notes: Receptor-mediated inositol phosphate (IP3) accumulation, AP-3
Format: cell-based
study-conditions: 10 μM test compound, triplicate; control without test compound
Your answer is read as %, so omit the unit and give the number.

// known answers, use as guide
Cn1cc(Br)c(-c2cccc(NC(=O)Nc3cccc(Cl)c3)c2)n1 = 11
COc1cccc(NC(=O)Nc2cccc(-c3nn(C)cc3Br)c2)c1 = 7

Problem: Need IP3 % of Control, item "Cn1cc(Br)c(-c2cccc(NC(=O)Nc3ccc(C(F)(F)F)cc3)c2)n1"
Result: 11

Problem: Fill in the blank: the reported IP3 % of Control of "CC(C)c1ccc(NC(=O)Nc2cccc(-c3nn(C)cc3Br)c2)cc1" is ____.
Result: 7

Problem: What value of measured IP3 % of Control is listed for "Cn1cc(Br)c(-c2cccc(NC(=O)Nc3ccc(F)cc3)c2)n1" ?
Result: 11

Problem: IP3 % of Control lookup needed for "Cn1cc(Br)c(-c2cccc(NC(=O)Nc3ccc(C#N)cc3)c2)n1" , thanks.
Result: 12

----------
Recorded IP3 % of Control by entry
Tested on: human mutated 5HT2A receptor, AP-3
assay-notes: Receptor-mediated inositol phosphate (IP3) accumulation, AP-3
Assay type: cell-based
study-conditions: 10 μM test compound, triplicate; control without test compound
Note: unit % is implicit; provide only the numeric part.

// below: answered compounds
Cn1cc(Br)c(-c2cccc(NC(=O)Nc3ccc(SC(F)(F)F)cc3)c2)n1 [Compound 116139] = 12
Cc1cccc(NC(=O)Nc2cccc(-c3nn(C)cc3Br)c2)c1 [Compound 116112] = 14
Cc1ccccc1NC(=O)Nc1cccc(-c2nn(C)cc2Br)c1 [Compound 116092] = 32

Lab note: next compound to report on.
Problem: Item Cn1cc(Br)c(-c2cccc(NC(=O)Nc3ccccc3Cl)c2)n1 [Compound 116108] has what recorded IP3 % of Control?
Result: 6
